tested on: soluble epoxide hydrolase (sEH); experiment: Fluorescent assay for soluble epoxide hydrolase (CMNPC substrate), percent inhibition at the recited concentration; assay type: biochemical; details: Inhibition Conc. 500 nM
experimental-endpoint: % inh. (%)

[[record]]
compound = "CC(=O)N1CCC(NC(=O)NC23CC4(F)CC(F)(CC(F)(C4)C2)C3)CC1 [Compound 3-1]"
obs_value = 70

[[record]]
compound = "CC(=O)N1CCC(NC(=O)NC2CCCCC2)CC1 [Compound 7-43]"
obs_value = 86

[[record]]
compound = "CC(=O)N1CCC(NC(=O)NC23CC4CC(F)(CC(F)(C4)C2)C3)CC1 [Compound 3-3]"
obs_value = 63

[[record]]
compound = "CC(=O)N1CCC(NC(=O)Nc2ccc3ncccc3c2)CC1 [Compound 6-4]"
obs_value = 70

[[record]]
compound = "CC(=O)N1CCC(NC(=O)NCCCCCCCCO)CC1 [Compound 1-6]"
obs_value = 85

[[record]]
compound = "CC(C)(C)OC(=O)N1CCC(NC(=O)NC2CCCC2)CC1 [Compound 7-17]"
obs_value = 85

[[record]]
compound = "CNS(=O)(=O)c1cccc(C(=O)N2CCC(NC(=O)Cc3ccc(Cl)cc3)CC2)c1 [Compound 7-85]"
obs_value = 73

[[record]]
compound = "CC(=O)N1CCC(NC(=O)Nc2ccc3c(c2)CCC3)CC1 [Compound 6-6]"
obs_value = 93

[[record]]
compound = "CNS(=O)(=O)c1ccc(C(=O)N2CCC(NC(=O)Nc3ccc(F)cc3)CC2)cc1 [Compound 4-11]"
obs_value = 94

[[record]]
compound = "CC(C)(C)OC(=O)N1CCC(NC(=O)Nc2ccc3cc[nH]c3c2)CC1 [Compound 6-2]"
obs_value = 87

[[record]]
compound = "CC(=O)N1CCC(NC(=O)NCC2CCCCC2)CC1 [Compound 1-2]"
obs_value = 92

[[record]]
compound = "CC(=O)N1CCC(NC(=O)NC2CCC(C(C)(C)C)CC2)CC1 (stereo not drawn) [Compound 7-3]"
obs_value = 86

[[record]]
compound = "CC(=O)N1CCC(NC(=O)Nc2ccc(S(=O)(=O)N3CCOCC3)cc2)CC1 [Compound 5-2]"
obs_value = 90

[[record]]
compound = "CC(=O)N1CCC(NC(=O)Nc2ccc(Oc3ccccc3)cc2)CC1 [Compound 7-12]"
obs_value = 95

[[record]]
compound = "CC(C)(C)OC(=O)N1CCC(NC(=O)Nc2ccc(-c3nnn[nH]3)cc2)CC1 [Compound 6-8]"
obs_value = 93

[[record]]
compound = "CC(=O)N1CCC(NC(=O)NC23CC4CC(CC(F)(C4)C2)C3)CC1 [Compound 3-4]"
obs_value = 82

[[record]]
compound = "O=C(NC1CCCCC1)NC1CCN(C(=O)CCCN2CCOCC2)CC1 [Compound 7-61]"
obs_value = 83

[[record]]
compound = "O=C(Nc1ccc(C(F)(F)F)cc1)NC1CCN(c2ncccc2C(=O)O)CC1 [Compound 2-7]"
obs_value = 64


# credit: patent US20080227780A1
